Test system: GST-tagged Cn
experimental-protocol: PEPperPRINT peptide microarray binding assay with GST-tagged Cn
experimental-context: max over the chip locations listed for the peptide (two spots)
Please assign a class to every record based on measured Chip Fluorescence (max), with ranges bin A (below 4), bin B (4 to below 5), bin C (5 or more)

sequence-entry: GTESTPSVVVHVCESE [SeqRCN1_Pongo_abelii]
category-label: bin A

sequence-entry: TFWTNPQYRLKLEDPD [SeqRBMlowT_1296]
category-label: bin C

sequence-entry: KAYINPFMTFIEGGRK [SeqRBMlowT_3627]
category-label: bin B

sequence-entry: GTSGGFPQTDRSHKKQ [SeqRBM_413]
category-label: bin A

sequence-entry: PSEDQPGIVVHVCEED [SeqRBMlowT_124]
category-label: bin B

sequence-entry: TFWTNPQYRITLEDED [SeqRBMlowT_1185]
category-label: bin B

Please classify: GDPITVTFSFKQQSIR [Seqshuffled_9986]
bin B

And the next one, TFWTNPQYRLKLLEED [SeqCAPN11_Tupaia_chinensis] ?
bin B

And the next one, ADEAPPEITITPAELP [SeqRBMlowT_445] ?
bin C

And the next one, SAGTGVGIVITVTEAE [SeqRBMlowT_1404] ?
bin B

###

Kindly state Chip Fluorescence (mean) for each of the entries shown.
System: GST-tagged Cn
experimental-protocol: PEPperPRINT peptide microarray binding assay with GST-tagged Cn
experimental-context: GST-tagged Cn, mean over the spots on the chip (two locations)

sequence-entry: TFWTNPQFKITLEEVD [SeqRBMlowT_4669]
Chip Fluorescence (mean): 0.1676
//
sequence-entry: KAYMNPYVQFIDGGRR [SeqRBMlowT_9255]
Chip Fluorescence (mean): -0.2059
//
sequence-entry: QAIYQDILGIGAFSGS [SeqRBM_285]
Chip Fluorescence (mean): -0.8575
//
sequence-entry: ASEANPEITITPAELP [SeqRBMlowT_410]
Chip Fluorescence (mean): -0.403
//
sequence-entry: KAYMCPSMQFIDGGRR [SeqRBMlowT_9264]
Chip Fluorescence (mean): -0.003433
//
sequence-entry: RSPGTFPLELSGHKKQ [SeqRBMlowT_6356]
Chip Fluorescence (mean): -0.7748

Next:
Entry under review: RNPGTALLELRGHKAS [SeqRBMlowT_6384] . Reported Chip Fluorescence (mean)?
0.5723

###

Tested on: GST-tagged Cn
experimental-protocol: PEPperPRINT peptide microarray binding assay with GST-tagged Cn
experimental-context: max over the duplicate spots (Location on chip)
Kindly state Chip Fluorescence (max) for each of the entries shown.
One number for each entry.

sequence-entry: DCIGFCSVPVMYAPNH [Seqrandom_1239]
Chip Fluorescence (max): 2.175

sequence-entry: RQPGSPVLELSGHSAN [SeqRBMlowT_5862]
Chip Fluorescence (max): 2.053

sequence-entry: LLDNVPAVHVHDMGGH [SeqRBM_9035]
Chip Fluorescence (max): 1.904

sequence-entry: KELANLRVTPPDNGTL [SeqRBM_2710]
Chip Fluorescence (max): 2.355

sequence-entry: SSMAQPAINIDFAPTN [SeqRBMlowT_2450]
Chip Fluorescence (max): 2.328

Hi, could you look up Chip Fluorescence (max) for each item in my list?
1. KADYTISLILHYDAIE [Seqshuffled_9660]
2. RNPESPVLELEGHSSP [SeqRBMlowT_6390]

[1.911, 2.243]

###

System: GST-tagged Cn
experimental-protocol: PEPperPRINT peptide microarray binding assay with GST-tagged Cn
experimental-context: GST-tagged Cn, mean over the chip locations
Source text: We then estimated in-silico the binding strength of the various peptides to Cn by template-based docking followed by flexible backbone refinement using Modeller and PepCrawler (Figs 4 and S4). […] Fig 4 Medium-throughput filtering by structural modeling and microarray screening. […] (f) Scatter plot of the sequence likelihood (normalized by length, higher is better) against fluorescence level (higher is better, see Methods for details of the data analysis). […]
One threshold, -0.8, splits the recorded Chip Fluorescence (mean) values: lower ones are Met, equal or higher ones are Not met.

sequence-entry: ASMSPPCINIDYAPIS [SeqRBM_1607]
category-label: Met

sequence-entry: TFHREPQNRLYVLSAV [SeqRBM_456]
category-label: Met

sequence-entry: SSRIQSKIVVNEPKQI [SeqRBM_7418]
category-label: Met

Say whether its Chip Fluorescence (mean) is strictly beneath -0.8. Entry: TEWNNPQQIVGPTEGD [SeqRBM_3582]
Met

And the next one, ATSEQPTFDLSSAMPT [SeqRBM_6206] ?
Met

And the next one, ESFGNELIPFNASKSY [Seqshuffled_9947] ?
Not met

And the next one, TFWANPQFRIKLEEPD [SeqRBMlowT_4612] ?
Not met

And the next one, STSSLPTFSFSSPQST [SeqRBMlowT_3930] ?
Met

And the next one, SSAAPPAINIDFAPTN [SeqRBMlowT_5045] ?
Met

And the next one, VKLVIIQVRSASVDAN [SeqRBM_6437] ?
Met

And the next one, LATQVPTFEITSPNSA [SeqNRG2_Pan_troglodytes] ?
Not met

And the next one, HSKLIPKLSIQSPVHH [SeqRBMlowT_822] ?
Not met

###

System: GST-tagged Cn
experimental-protocol: PEPperPRINT peptide microarray binding assay with GST-tagged Cn
experimental-context: GST-tagged Cn, max over the spots on the chip (two locations)
reported-property: Chip Fluorescence (max)
Answers are plain numbers.

sequence-entry: PKMAPPCINIDFAPTN [SeqRBMlowT_319]
reported-property: Chip Fluorescence (max)
readout-value: 1.2058

Hi, could you look up Chip Fluorescence (max) for each item in my list?
1. GLCDSSKVNLVDAGPV [Seqshuffled_9731]
2. KSRALSKVVINEPLTI [SeqTRESK_Leptosomus_discolor]
3. KMAKFLINLSAEKSVM [Seqrandom_9965]

1.002
1.0328
1.232

Hi, could you look up Chip Fluorescence (max) for each item in my list?
1. TFWTNPQFKITLTEPD [SeqRBMlowT_689]
2. SKLMCVTLAIGSLSTS [SeqRBM_2514]
3. LEAAPPDPDRKPPNII [Seqshuffled_9311]
4. RTLINPSVAFLYMGSR [SeqRBM_5357]
5. STSSLPTFSFSSLAPS [SeqRBMlowT_2354]
6. FNSWRQVPLWSPEFHT [SeqRBM_9832]

[1.036, 1.101, 1.299, 1.016, 1.162, 1.192]

Hi, could you look up Chip Fluorescence (max) for each item in my list?
1. TFWTNPQYKVKLEEED [SeqRBMlowT_252]
2. TFWSNPQFKIKLEEPD [SeqRBMlowT_2229]
3. TFWTNPQFKITLEEVD [SeqRBMlowT_4669]
4. ARPPNAAFVLDQETTY [Seqshuffled_9990]
5. STSSLPTFSFSSPQPS [SeqRBMlowT_3925]

1.065
1.024
1.236
1.0396
1.1241

Hi, could you look up Chip Fluorescence (max) for each item in my list?
1. QKRYGETFPPVKTGSD [Seqshuffled_1489]
2. ATDTTPSVVVHVCESD [SeqRCN1_Macaca_mulatta]

[1.242, 1.045]

Hi, could you look up Chip Fluorescence (max) for each item in my list?
1. RNPGSPTLELNGHSGG [SeqRBM_9695]
2. TFWTNPQYKITLEEPD [SeqRBMlowT_54]
3. ASGLSPRIEITPSHEL [SeqNFATC2_Homo_sapiens]
4. KAYMNPYVQFIDGGRR [SeqRBMlowT_9255]
5. STSSLPTFSFSTPPPT [SeqRBMlowT_1617]
6. TTSTNPQIRITDHEDE [Seqshuffled_9411]
7. TTWLVVFMIPELMKLS [Seqshuffled_9855]

[1.159, 1.133, 0.9983, 1.252, 1.022, 1.2864, 1.271]

Hi, could you look up Chip Fluorescence (max) for each item in my list?
1. GVHSCPALSVDRPQNQ [Seqshuffled_9565]
2. ADGAGVGIVITVTEAE [SeqRBMlowT_1411]
3. LSLKIPEISIQDMTAQ [SeqFLNA_Macaca_mulatta]
4. QAIYQDILGIGAFSGS [SeqRBM_285]
5. TFWTNPQYRITLEDVD [SeqRBMlowT_4237]

1: 1.31; 2: 1.31; 3: 1.124; 4: 1.266; 5: 1.081

Hi, could you look up Chip Fluorescence (max) for each item in my list?
1. KAYMCPSMQFIDGGRR [SeqRBMlowT_9264]
2. GGPGTPGRQGGHLAPS [SeqRBMlowT_9820]
3. TFWTNPQFVVSLEEPD [SeqRBMlowT_8096]

1: 1.2267; 2: 1.277; 3: 1.137

Hi, could you look up Chip Fluorescence (max) for each item in my list?
1. TFWSNPQFKIKLEEED [SeqRBMlowT_8507]
2. RNPGQALLTLRGHKKQ [SeqRBMlowT_5826]

[1.116, 1.2153]
